Listed here are compounds together with their documented % ID Urinary (urinary excretion), mean.
System: Lewis lung carcinoma (LLC) tumour
Experiment: Biodistribution in LLC tumour model in vivo
Design: species or system C57BL/6 mice
Details: 30 min post injection
Protocol: 1×10^6 Lewis lung carcinoma (LLC) cells are injected subcutaneously into right inner thigh of C57BL/6 mice. Tumours were allowed to grow for 15 days prior to biodistribution being carried out. Biodistribution studies were performed in the LLC tumour model. Biodistribution was performed in the LLC tumour model of Example 23 with Compounds 46B and 48B.
Recorded endpoint: % ID Urinary (urinary excretion), mean (% ID)

[[record]]
compound = "NC(=O)[C@H](Cc1ccc(O)c([123I])c1)NC(=O)CCOCCOCCOCCOCCOCCOCCOCCOCCOCCOCCOCCNC(=O)CCOCCOCCOCCOCCOCCOCCOCCOCCOCCOCCOCCNC(=O)CCN(C1(C(=O)NO)CCCC1)S(=O)(=O)c1ccc(Oc2ccc(F)cc2)cc1 [Compound 32A]"
study_system = "Lewis lung carcinoma (LLC) tumour"
recorded_endpoint = "% ID Urinary (urinary excretion), mean"
unit_text = "% ID"
measured_number = 35.20

[[record]]
compound = "NC(=O)[C@H](Cc1ccc(O)c([123I])c1)NC(=O)CCOCCOCCOCCOCCOCCOCCOCCOCCOCCOCCOCCNC(=O)CCN(C1(C(=O)NO)CCCC1)S(=O)(=O)c1ccc(Oc2ccc(F)cc2)cc1 [Compound 44A]"
study_system = "Lewis lung carcinoma (LLC) tumour"
recorded_endpoint = "% ID Urinary (urinary excretion), mean"
unit_text = "% ID"
measured_number = 5.85

[[record]]
compound = "NC(=O)[C@H](Cc1ccc(O)c([123I])c1)NC(=O)COCC(=O)NCCOCCOCCOCCNC(=O)[C@H](CCC(=O)O)NC(=O)[C@H](CCC(=O)O)NC(=O)[C@H](CCC(=O)O)NC(=O)[C@H](CCC(=O)O)NC(=O)[C@H](CCC(=O)O)NC(=O)CCN(C1(C(=O)NO)CCCC1)S(=O)(=O)c1ccc(Oc2ccc(F)cc2)cc1 [Compound 38A]"
study_system = "Lewis lung carcinoma (LLC) tumour"
recorded_endpoint = "% ID Urinary (urinary excretion), mean"
unit_text = "% ID"
measured_number = 40.17

[[record]]
compound = "NC(=O)[C@H](Cc1ccc(O)c([123I])c1)NC(=O)[C@H](CCC(=O)O)NC(=O)[C@H](CCC(=O)O)NC(=O)[C@H](CCC(=O)O)NC(=O)[C@H](CCC(=O)O)NC(=O)[C@H](CCC(=O)O)NC(=O)CCN(C1(C(=O)NO)CCCC1)S(=O)(=O)c1ccc(Oc2ccc(F)cc2)cc1 [Compound 21A]"
study_system = "Lewis lung carcinoma (LLC) tumour"
recorded_endpoint = "% ID Urinary (urinary excretion), mean"
unit_text = "% ID"
measured_number = 26.73

[[record]]
compound = "NC(=O)[C@H](CCCCNC(=O)CON=Cc1ccc([18F])cc1)NC(=O)CCOCCOCCOCCOCCOCCOCCOCCOCCOCCOCCOCCNC(=O)CCOCCOCCOCCOCCOCCOCCOCCOCCOCCOCCOCCNC(=O)CCN(C1(C(=O)NO)CCCC1)S(=O)(=O)c1ccc(Oc2ccc(F)cc2)cc1 [Compound 48B]"
study_system = "Lewis lung carcinoma (LLC) tumour"
recorded_endpoint = "% ID Urinary (urinary excretion), mean"
unit_text = "% ID"
measured_number = 15.29

[[record]]
compound = "NC(=O)[C@H](CCCCNC(=O)CON=Cc1ccc([18F])cc1)NC(=O)CCN(C1(C(=O)NO)CCCC1)S(=O)(=O)c1ccc(Oc2ccc(F)cc2)cc1 [Compound 46B]"
study_system = "Lewis lung carcinoma (LLC) tumour"
recorded_endpoint = "% ID Urinary (urinary excretion), mean"
unit_text = "% ID"
measured_number = 12.00

[[record]]
compound = "NCCCC[C@H](NC(=O)CCN(C1(C(=O)NO)CCCC1)S(=O)(=O)c1ccc(Oc2ccc(F)cc2)cc1)C(=O)N[C@@H](CCCCN)C(=O)N[C@@H](CCCCN)C(=O)N[C@@H](CCCCN)C(=O)N[C@@H](CCCCN)C(=O)NCCOCCOCCOCCNC(=O)COCC(=O)N[C@@H](Cc1ccc(O)c([123I])c1)C(N)=O [Compound 42A]"
study_system = "Lewis lung carcinoma (LLC) tumour"
recorded_endpoint = "% ID Urinary (urinary excretion), mean"
unit_text = "% ID"
measured_number = 16.98

[[record]]
compound = "O=C(CCN(C1(C(=O)NO)CCCC1)S(=O)(=O)c1ccc(Oc2ccc(F)cc2)cc1)NCCc1ccc(O)c([123I])c1 [Compound 24A]"
study_system = "Lewis lung carcinoma (LLC) tumour"
recorded_endpoint = "% ID Urinary (urinary excretion), mean"
unit_text = "% ID"
measured_number = 6.89


====

Tested on: Lewis lung carcinoma (LLC) tumour
Assay: Biodistribution in LLC tumour model in vivo
Design: species or system C57BL/6 mice
Settings: 120 min post injection
Parameter: Tumour/Heart, mean. Scope: all listed entries.
Recorded endpoint: Tumour/Heart, mean

[[record]]
compound = "NC(=O)[C@H](CCCCNC(=O)CON=Cc1ccc([18F])cc1)NC(=O)CCN(C1(C(=O)NO)CCCC1)S(=O)(=O)c1ccc(Oc2ccc(F)cc2)cc1 [Compound 46B]"
measured_number = 1.33

[[record]]
compound = "NC(=O)[C@H](Cc1ccc(O)c([123I])c1)NC(=O)[C@H](CCC(=O)O)NC(=O)[C@H](CCC(=O)O)NC(=O)[C@H](CCC(=O)O)NC(=O)[C@H](CCC(=O)O)NC(=O)[C@H](CCC(=O)O)NC(=O)CCN(C1(C(=O)NO)CCCC1)S(=O)(=O)c1ccc(Oc2ccc(F)cc2)cc1 [Compound 21A]"
measured_number = 0.91

[[record]]
compound = "NCCCC[C@H](NC(=O)CCN(C1(C(=O)NO)CCCC1)S(=O)(=O)c1ccc(Oc2ccc(F)cc2)cc1)C(=O)N[C@@H](CCCCN)C(=O)N[C@@H](CCCCN)C(=O)N[C@@H](CCCCN)C(=O)N[C@@H](CCCCN)C(=O)NCCOCCOCCOCCNC(=O)COCC(=O)N[C@@H](Cc1ccc(O)c([123I])c1)C(N)=O [Compound 42A]"
measured_number = 1.49

[[record]]
compound = "NC(=O)[C@H](Cc1ccc(O)c([123I])c1)NC(=O)COCC(=O)NCCOCCOCCOCCNC(=O)[C@H](CCC(=O)O)NC(=O)[C@H](CCC(=O)O)NC(=O)[C@H](CCC(=O)O)NC(=O)[C@H](CCC(=O)O)NC(=O)[C@H](CCC(=O)O)NC(=O)CCN(C1(C(=O)NO)CCCC1)S(=O)(=O)c1ccc(Oc2ccc(F)cc2)cc1 [Compound 38A]"
measured_number = 1.14

[[record]]
compound = "NC(=O)[C@H](CCCCNC(=O)CON=Cc1ccc([18F])cc1)NC(=O)CCOCCOCCOCCOCCOCCOCCOCCOCCOCCOCCOCCNC(=O)CCOCCOCCOCCOCCOCCOCCOCCOCCOCCOCCOCCNC(=O)CCN(C1(C(=O)NO)CCCC1)S(=O)(=O)c1ccc(Oc2ccc(F)cc2)cc1 [Compound 48B]"
measured_number = 1.52

[[record]]
compound = "NC(=O)[C@H](Cc1ccc(O)c([123I])c1)NC(=O)CCOCCOCCOCCOCCOCCOCCOCCOCCOCCOCCOCCNC(=O)CCN(C1(C(=O)NO)CCCC1)S(=O)(=O)c1ccc(Oc2ccc(F)cc2)cc1 [Compound 44A]"
measured_number = 1.060

[[record]]
compound = "NC(=O)[C@H](Cc1ccc(O)c([123I])c1)NC(=O)CCOCCOCCOCCOCCOCCOCCOCCOCCOCCOCCOCCNC(=O)CCOCCOCCOCCOCCOCCOCCOCCOCCOCCOCCOCCNC(=O)CCN(C1(C(=O)NO)CCCC1)S(=O)(=O)c1ccc(Oc2ccc(F)cc2)cc1 [Compound 32A]"
measured_number = 1.54

[[record]]
compound = "O=C(CCN(C1(C(=O)NO)CCCC1)S(=O)(=O)c1ccc(Oc2ccc(F)cc2)cc1)NCCc1ccc(O)c([123I])c1 [Compound 24A]"
measured_number = 1.23


====

Test system: Lewis lung carcinoma (LLC) tumour
Test: Biodistribution in LLC tumour model in vivo
Design: species or system C57BL/6 mice
Details: 5 min post injection
Recorded endpoint: Tumour/Muscle, mean

[[record]]
compound = "NC(=O)[C@H](Cc1ccc(O)c([123I])c1)NC(=O)CCOCCOCCOCCOCCOCCOCCOCCOCCOCCOCCOCCNC(=O)CCOCCOCCOCCOCCOCCOCCOCCOCCOCCOCCOCCNC(=O)CCN(C1(C(=O)NO)CCCC1)S(=O)(=O)c1ccc(Oc2ccc(F)cc2)cc1 [Compound 32A]"
measured_number = 1.66

[[record]]
compound = "NC(=O)[C@H](CCCCNC(=O)CON=Cc1ccc([18F])cc1)NC(=O)CCOCCOCCOCCOCCOCCOCCOCCOCCOCCOCCOCCNC(=O)CCOCCOCCOCCOCCOCCOCCOCCOCCOCCOCCOCCNC(=O)CCN(C1(C(=O)NO)CCCC1)S(=O)(=O)c1ccc(Oc2ccc(F)cc2)cc1 [Compound 48B]"
measured_number = 1.55

[[record]]
compound = "NCCCC[C@H](NC(=O)CCN(C1(C(=O)NO)CCCC1)S(=O)(=O)c1ccc(Oc2ccc(F)cc2)cc1)C(=O)N[C@@H](CCCCN)C(=O)N[C@@H](CCCCN)C(=O)N[C@@H](CCCCN)C(=O)N[C@@H](CCCCN)C(=O)NCCOCCOCCOCCNC(=O)COCC(=O)N[C@@H](Cc1ccc(O)c([123I])c1)C(N)=O [Compound 42A]"
measured_number = 1.46

[[record]]
compound = "NC(=O)[C@H](Cc1ccc(O)c([123I])c1)NC(=O)CCOCCOCCOCCOCCOCCOCCOCCOCCOCCOCCOCCNC(=O)CCN(C1(C(=O)NO)CCCC1)S(=O)(=O)c1ccc(Oc2ccc(F)cc2)cc1 [Compound 44A]"
measured_number = 1.91

[[record]]
compound = "NC(=O)[C@H](Cc1ccc(O)c([123I])c1)NC(=O)COCC(=O)NCCOCCOCCOCCNC(=O)[C@H](CCC(=O)O)NC(=O)[C@H](CCC(=O)O)NC(=O)[C@H](CCC(=O)O)NC(=O)[C@H](CCC(=O)O)NC(=O)[C@H](CCC(=O)O)NC(=O)CCN(C1(C(=O)NO)CCCC1)S(=O)(=O)c1ccc(Oc2ccc(F)cc2)cc1 [Compound 38A]"
measured_number = 1.22

[[record]]
compound = "NC(=O)[C@H](Cc1ccc(O)c([123I])c1)NC(=O)[C@H](CCC(=O)O)NC(=O)[C@H](CCC(=O)O)NC(=O)[C@H](CCC(=O)O)NC(=O)[C@H](CCC(=O)O)NC(=O)[C@H](CCC(=O)O)NC(=O)CCN(C1(C(=O)NO)CCCC1)S(=O)(=O)c1ccc(Oc2ccc(F)cc2)cc1 [Compound 21A]"
measured_number = 0.92

[[record]]
compound = "NC(=O)[C@H](CCCCNC(=O)CON=Cc1ccc([18F])cc1)NC(=O)CCN(C1(C(=O)NO)CCCC1)S(=O)(=O)c1ccc(Oc2ccc(F)cc2)cc1 [Compound 46B]"
measured_number = 1.16

[[record]]
compound = "O=C(CCN(C1(C(=O)NO)CCCC1)S(=O)(=O)c1ccc(Oc2ccc(F)cc2)cc1)NCCc1ccc(O)c([123I])c1 [Compound 24A]"
measured_number = 1.19

